biological target: NDM-1 (Klebsiella pneumoniae, UniProt C7C422); experiment: metallo-β-lactamase inhibition assay (nitrocefin); settings: 1.5 nM NDM-1, 100 μM nitrocefin, 37° C., pH 7.5
Sequence (C7C422 whole entry, looked up, species assumed): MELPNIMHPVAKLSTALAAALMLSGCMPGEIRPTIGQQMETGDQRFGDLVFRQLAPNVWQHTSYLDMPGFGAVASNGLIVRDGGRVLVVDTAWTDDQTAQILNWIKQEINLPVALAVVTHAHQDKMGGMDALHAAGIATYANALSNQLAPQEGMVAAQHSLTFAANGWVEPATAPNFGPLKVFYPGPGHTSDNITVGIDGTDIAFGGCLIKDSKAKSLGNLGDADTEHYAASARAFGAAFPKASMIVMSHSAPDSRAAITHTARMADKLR
Counter-ions that a name gives are not always drawn.
I'd be grateful if you could share measured IC50 for these entries.
Output spec: scalar in nM, unitless text.

QUERY: For the record NCCNC(=O)c1ccc(-c2ccn(S(N)(=O)=O)c2C(=O)O)cc1 [Example 26] , what value of IC50 is listed for NDM-1 (Klebsiella pneumoniae, UniProt C7C422)?
RESULT: 420

QUERY: For the record NC(=O)CNC(=O)c1ccc(-c2ccn(S(N)(=O)=O)c2C(=O)O)cc1 [Example 8] , what value of IC50 is listed for NDM-1 (Klebsiella pneumoniae, UniProt C7C422)?
RESULT: 405

QUERY: For the record CC(=O)N1CCCC(c2ccn(S(N)(=O)=O)c2C(=O)O)C1 (stereo not drawn) [Example 58] , what value of IC50 is listed for NDM-1 (Klebsiella pneumoniae, UniProt C7C422)?
RESULT: 433

QUERY: For the record NS(=O)(=O)n1ccc(C2CCN(C(=O)[C@@H]3CCCN3)CC2)c1C(=O)O [Example 73] , what value of IC50 is listed for NDM-1 (Klebsiella pneumoniae, UniProt C7C422)?
RESULT: 568

QUERY: For the record NS(=O)(=O)n1ccc(-c2ccc(C(=O)NC3CNC3)cc2)c1C(=O)O [Example 35] , what value of IC50 is listed for NDM-1 (Klebsiella pneumoniae, UniProt C7C422)?
RESULT: 200

QUERY: For the record NCCNc1ccc(-c2ccn(S(N)(=O)=O)c2C(=O)O)cn1 [Example 95, hydrochloride] , what value of IC50 is listed for NDM-1 (Klebsiella pneumoniae, UniProt C7C422)?
RESULT: 377

QUERY: For the record CNCCN(C)C(=O)c1ccc(-c2ccn(S(N)(=O)=O)c2C(=O)O)cc1 [Example 25] , what value of IC50 is listed for NDM-1 (Klebsiella pneumoniae, UniProt C7C422)?
RESULT: 319

QUERY: For the record CC(=O)NCCNC(=O)c1ccc(-c2ccn(S(N)(=O)=O)c2C(=O)O)cc1 [Example 10] , what value of IC50 is listed for NDM-1 (Klebsiella pneumoniae, UniProt C7C422)?
RESULT: 374

QUERY: For the record C[C@H](N)C(=O)N1CCC(c2ccn(S(N)(=O)=O)c2C(=O)O)CC1 [Example 69] , what value of IC50 is listed for NDM-1 (Klebsiella pneumoniae, UniProt C7C422)?
RESULT: 1480
